For each of the compounds below, state its inhibition.
- test_system: Beta-secretase 1 (Homo sapiens, UniProt P56817)
- Sequence (P56817 whole entry): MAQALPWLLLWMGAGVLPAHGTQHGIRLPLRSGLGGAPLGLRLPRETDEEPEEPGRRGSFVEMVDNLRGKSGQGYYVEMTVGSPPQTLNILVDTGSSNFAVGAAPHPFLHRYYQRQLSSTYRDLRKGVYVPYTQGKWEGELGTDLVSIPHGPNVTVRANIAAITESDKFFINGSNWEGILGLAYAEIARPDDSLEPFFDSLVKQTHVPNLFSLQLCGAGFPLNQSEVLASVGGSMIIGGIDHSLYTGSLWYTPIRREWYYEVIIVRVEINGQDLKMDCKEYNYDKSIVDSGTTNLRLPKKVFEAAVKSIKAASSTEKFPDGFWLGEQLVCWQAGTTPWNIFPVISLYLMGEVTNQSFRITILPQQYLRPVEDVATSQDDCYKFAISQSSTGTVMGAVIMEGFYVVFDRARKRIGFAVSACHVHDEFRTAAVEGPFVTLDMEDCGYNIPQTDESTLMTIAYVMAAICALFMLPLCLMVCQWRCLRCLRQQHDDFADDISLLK
- method_summary: Inhibition of BACE1 at 100 uM by FRET assay
Report only the number, with the unit % understood.

Request: Give its inhibition value. Item: Cc1ccc(SCC(O)CN(Cc2ccccc2)Cc2ccccc2)cc1 (configuration not stated)
Result: 7

Request: Also CCc1cccc2ccn(CC(O)CSc3cc(C)cc(C)c3)c12 (configuration not stated) ?
Result: 90

Request: Let us now turn to COc1ccc(SCC(O)Cn2c(-c3ccccc3)cc3ccccc32)cc1 (configuration not stated)
Result: 70

Request: Can you check OC(COc1ccc(Cc2ccccc2)cc1)CSc1ccc(F)cc1 (configuration not stated) next?
Result: 62

Request: Try OC(CSc1ccccc1)CN(Cc1ccccc1)Cc1ccccc1 (configuration not stated) next.
Result: 0

Request: Try the compound OC(CSc1ccc2ccccc2c1)CN(Cc1ccccc1)Cc1ccccc1 (configuration not stated)
Result: 19

Request: Next entry: OC(COc1ccc(Cc2ccccc2)cc1)CSc1nnnn1-c1ccccc1 (configuration not stated)
Result: 62

Request: Also need Cc1c(C)n(CC(O)CSc2ccccc2Cl)c2ccccc12 (configuration not stated) , thanks.
Result: 100

Request: Please give the result for OC(CSc1ccc(F)cc1)CN1CCCCCC1 (configuration not stated) too.
Result: 10

Request: Can you handle COc1ccc(SCC(O)Cn2ccc3ccccc32)c(OC)c1 (configuration not stated) next?
Result: 84

Request: Next compound: OC(CSc1ccccc1F)Cn1c2ccccc2c2ccccc21 (configuration not stated)
Result: 89

Request: Would you mind doing CCc1ccccc1SCC(O)CN(Cc1ccccc1)Cc1ccccc1 (configuration not stated) as well?
Result: 54

* * *

- test_system: Beta-secretase 1 (Homo sapiens, UniProt P56817)
- method_summary: Inhibition of BACE1 at 25 uM by FRET assay
assay_metric: inhibition (%)
Respond numerically; units are % and should not be typed.

Request: Need inhibition, item OC(CSc1ccccc1F)Cn1c2c(c3ccccc31)CCC2 (centres undefined)
Result: 51

Request: Try OC(CSc1ccccc1Cl)Cn1c2c(c3ccccc31)CCCC2 (centres undefined) next.
Result: 68

Request: Ok, now CCc1cccc2ccn(CC(O)CSc3ccc(OC)cc3)c12 (centres undefined)
Result: 11

Request: Another: COc1ccc(SCC(O)Cn2ccc3ccccc32)c(OC)c1 (centres undefined)
Result: 43

Request: Same for CCc1ccc(SCC(O)Cn2ccc3cccc(CC)c32)cc1 (centres undefined)
Result: 38

Request: Follow-up item: Oc1ccc(SCC(O)COc2ccc(Cc3ccccc3)cc2)cc1 (centres undefined)
Result: 85

Request: Next up: Oc1ccc(SCC(O)Cn2c(-c3ccccc3)cc3ccccc32)cc1 (centres undefined)
Result: 72

Request: Also need COc1ccc(SCC(O)Cn2c3c(c4ccccc42)CCCC3)cc1 (centres undefined) , thanks.
Result: 58

Request: # repeat for Cc1ccc(SCC(O)Cn2c(-c3ccccc3)cc3ccccc32)cc1 (centres undefined)
Result: 45

Request: OC(CSc1ccc(Cl)cc1)Cn1c(-c2ccccc2)cc2ccccc21 (centres undefined) ?
Result: 56

Request: Query Cc1c(C)n(CC(O)CSc2ccccc2Cl)c2ccccc12 (centres undefined) next
Result: 68

Request: Now give it for OC(CSc1ccc(F)cc1)Cn1c2c(c3ccccc31)CCCC2 (centres undefined) too.
Result: 56

Request: And then OC(CSc1ccc2ccccc2c1)Cn1c2ccccc2c2ccccc21 (centres undefined) , what is it?
Result: 64

Request: Lookup OC(CSc1ccc2ccccc2c1)Cn1c2c(c3ccccc31)CCC2 (centres undefined)
Result: 43

Request: Also check COc1ccc(SCC(O)Cn2c(C)c(C)c3ccccc32)cc1 (centres undefined)
Result: 26

Request: Try this molecule next: Oc1ccccc1SCC(O)COc1ccc(Cc2ccccc2)cc1 (centres undefined)
Result: 90

Request: Moving on to OC(CSc1ccccc1)Cn1c2ccccc2c2ccccc21 (centres undefined)
Result: 79

Request: Do the same for OC(CSc1nnnn1-c1ccccc1)Cn1c2c(c3ccccc31)CCC2 (centres undefined) please
Result: 37

Request: Further, for CCc1cccc2ccn(CC(O)CSc3ccc(F)cc3)c12 (centres undefined) ?
Result: 48

Request: Would you mind doing Nc1cccc(SCC(O)Cn2c3ccccc3c3ccccc32)c1 (centres undefined) as well?
Result: 69

Request: Try Cc1c(C)n(CC(O)CSc2nnnn2-c2ccccc2)c2ccccc12 (centres undefined) next.
Result: 31

Request: And the next one, CCc1cccc2ccn(CC(O)CSc3cc(C)cc(C)c3)c12 (centres undefined) ?
Result: 40

Request: What do you get for COc1ccc(SCC(O)Cn2c(-c3ccccc3)cc3ccccc32)c(OC)c1 (centres undefined) ?
Result: 21

Request: And for OC(CSCCCc1ccccc1)Cn1c2c(c3ccccc31)CCC2 (centres undefined) ?
Result: 53
